Data origin: patent US10183950B2

Each entry below carries its recorded IC50.
# MEASURED_TARGET: full-length human PKCι (Homo sapiens)
# Construct: Recombinant, full-length human PKCι expressed in Sf21 insect cells is also commercially available; purchased; host or cells: Sf21 insect cells
# Sequence (P41743 whole entry): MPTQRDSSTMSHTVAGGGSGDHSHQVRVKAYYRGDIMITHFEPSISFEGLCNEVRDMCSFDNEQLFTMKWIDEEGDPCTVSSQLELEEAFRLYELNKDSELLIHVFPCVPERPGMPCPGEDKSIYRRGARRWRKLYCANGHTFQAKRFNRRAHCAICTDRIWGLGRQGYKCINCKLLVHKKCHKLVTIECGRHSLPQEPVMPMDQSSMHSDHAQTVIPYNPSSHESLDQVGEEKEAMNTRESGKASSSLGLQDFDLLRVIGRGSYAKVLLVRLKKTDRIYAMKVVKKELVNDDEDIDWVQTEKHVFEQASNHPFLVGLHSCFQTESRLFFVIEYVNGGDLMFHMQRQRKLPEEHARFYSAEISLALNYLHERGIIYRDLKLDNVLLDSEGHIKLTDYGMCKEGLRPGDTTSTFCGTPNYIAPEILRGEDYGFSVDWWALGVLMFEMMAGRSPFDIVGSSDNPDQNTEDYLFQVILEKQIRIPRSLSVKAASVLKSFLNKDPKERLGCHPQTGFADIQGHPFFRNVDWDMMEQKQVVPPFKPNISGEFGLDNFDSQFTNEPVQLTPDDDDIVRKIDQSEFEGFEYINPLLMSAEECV
# TEST_SUMMARY: PKCι IC50 IMAP fluorescence polarisation assay, full-length enzyme
# Type: biochemical
# APPLIED_CONDITIONS: full length PKCi at 15 μM ATP; read-out: IC50 in IMAP assay against full length PKCi

Looking up N[C@H](CNc1nc(-c2ccncc2)nc2c(-c3ccc[nH]3)csc12)Cc1ccccc1 [compound 397] , I see its IC50 listed as 0.1 to 1 µM

Looking up CN(C)C(=O)Nc1cc(-c2nc(N[C@@H]3CCNC3)c3sccc3n2)ccn1 [compound 581] , I see its IC50 listed as 1 to 10 µM

Looking up Fc1cnccc1-c1nc(N[C@@H]2CCNC2)c2scc(Nc3ccon3)c2n1 [compound 497] , I see its IC50 listed as 10 to 40 µM

Looking up COc1ccc(C(C)C)cc1-c1c(C)sc2c(NC[C@@H](N)Cc3ccccc3)nc(-c3ccncc3)nc12 [compound 462] , I see its IC50 listed as 10 to 40 µM

Looking up N[C@H](CNc1nc(-c2ccncc2F)nc2c(Nc3ccccc3)csc12)Cc1ccccc1 [compound 491] , I see its IC50 listed as 1 to 10 µM
